Test system: primary human fibroblasts derived from IPF patients (LL29 cells) treated with TGF-β1
Experiment: Inhibition of the fibrotic process: αSMA staining in TGF-β1 treated LL29 fibroblasts
Format: cell-based
Settings: Fibroblast, read-out: percent inhibition at 10 μM
Reported inhibition at 10 µM maps to class as: low (below 7%), mid (7% to below 20%), high (20% or more)

(Q) Category of c1cncc(-c2ccc3[nH]nc(-c4cc5c(-c6cccnc6)ccnc5[nH]4)c3c2)c1 :
(A) low

(Q) In plain terms, what class is CN(C)Cc1cncc(-c2cc(F)c3[nH]nc(-c4cc5c(-c6cccc(F)c6)ccnc5[nH]4)c3c2)c1 ?
(A) low

(Q) Field: class (inhibition at 10 µM) — entry: c1cc(N2CCCCC2)c2cc(-c3n[nH]c4ccc(-c5cncc(CNCC6CCCC6)c5)cc34)[nH]c2n1
(A) high

(Q) Kindly identify the class of CCC(=O)Nc1cncc(-c2ccc3[nH]nc(-c4cc5c(N6CCCCC6)ccnc5[nH]4)c3c2)c1 .
(A) mid

(Q) Band assignment needed for CN1CCN(c2ccnc3[nH]c(-c4n[nH]c5ccc(-c6cncc(N)c6)cc45)cc23)CC1 please.
(A) high
